system: Ipomea hederaceae (IPOHE); test: Pre-emergence biological efficacy (Example 13); type: in vivo; settings: Ipomoea hederacea, 312 h; pre-emergence, 1,000 g/ha, after 13 days; read-out: Percentage damage IPOHE

{"compound": "C=Cc1c(NCc2ccco2)nc(-c2ccc(Cl)c(OC)c2F)nc1C(=O)OCCOCC [Compound 48]", "assay_target": "Ipomea hederaceae (IPOHE)", "pest or weed control at 1000 g/ha (%)": 0}
{"compound": "C/C=C/c1c(N)nc(-c2ccc(Cl)c(OC)c2F)nc1C(=O)OC [Compound 3]", "assay_target": "Ipomea hederaceae (IPOHE)", "pest or weed control at 1000 g/ha (%)": 90}
{"compound": "C=Cc1c(NC2CCC2)nc(-c2ccc(Cl)c(OC)c2F)nc1C(=O)OC [Compound 24]", "assay_target": "Ipomea hederaceae (IPOHE)", "pest or weed control at 1000 g/ha (%)": 80}
{"compound": "C=Cc1c(NCc2ccco2)nc(-c2ccc(Cl)cc2)nc1C(=O)OC [Compound 7]", "assay_target": "Ipomea hederaceae (IPOHE)", "pest or weed control at 1000 g/ha (%)": 40}
{"compound": "C=Cc1c(NCc2ccco2)nc(-c2ccc(Cl)c(OC)c2F)nc1C(=O)OC [Compound 6]", "assay_target": "Ipomea hederaceae (IPOHE)", "pest or weed control at 1000 g/ha (%)": 90}
{"compound": "C=Cc1c(N)nc(-c2ccc(Cl)nc2)nc1C(=O)OC [Compound 8]", "assay_target": "Ipomea hederaceae (IPOHE)", "pest or weed control at 1000 g/ha (%)": 40}
{"compound": "C=Cc1c(NCc2ccco2)nc(-c2ccc(Cl)c(N(C)C)c2F)nc1C(=O)OC [Compound 13]", "assay_target": "Ipomea hederaceae (IPOHE)", "pest or weed control at 1000 g/ha (%)": 20}
